- System: E. coli TESEC Mtb Asd
- EXPERIMENT_SUMMARY: growth (OD600 after 10 h); higher = more growth (less inhibition)
- EXPERIMENTAL_SETUP: arabinose induction (level): High; compound 0.1 mM; raw OD600 reference: median of DMSO wells 0.331, cell-free background 0.041
Structures can show the parent of a compound that is named as a salt.
RESULT_TYPE: growth
API doc: respond with a numeric literal and nothing else, no unit.

Challenge: Fill in the blank: the reported growth of CC(=O)N(CC(C)C(=O)O)c1c(I)cc(I)c(N)c1I (centres undefined) is ____.
Response given: 0.36

Challenge: What do you have for Fc1ccc(C(c2ccc(F)cc2)N2CCN(C/C=C/c3ccccc3)CC2)cc1 [Flunarizine dihydrochloride] ?
Response given: 0.0843

Challenge: Now this one: CCOC(=O)Nc1ccc2c(c1)N(C(=O)CCN1CCOCC1)c1ccccc1S2 [Moricizine hydrochloride]
Response given: 0.175

Challenge: Another: COc1ccc(Cl)cc1C(=O)NCCc1ccc(S(=O)(=O)NC(=O)NC2CCCCC2)cc1 [Glibenclamide]
Response given: 0.154

Challenge: Try this molecule too: COc1cc2nc(N3CCN(C(=O)c4ccco4)CC3)nc(N)c2cc1OC [Prazosin hydrochloride]
Response given: 0.263

Challenge: Next molecule up: Cc1cc(C(C)(C)C)cc(C)c1CC1=NCCN1 [Xylometazoline hydrochloride]
Response given: 0.272

Challenge: Further, for CN(C)CCCN1c2ccccc2Sc2ccccc21 [Promazine hydrochloride] ?
Response given: 0.187

Challenge: Also check CCCN[C@H]1CCc2nc(N)sc2C1 [Pramipexole dihydrochloride]
Response given: 0.262

Challenge: What do you have for CCC(=O)O[C@]1(C(=O)SCF)[C@H](C)C[C@H]2[C@@H]3C[C@H](F)C4=CC(=O)C=C[C@]4(C)[C@@]3(F)[C@@H](O)C[C@@]21C [Fluticasone propionate] ?
Response given: 0.258

All figures here come from the supplement of paper PMC9262897.
